- System: JJN-3 (NIK translocated) multiple myeloma cells
- assay-overview: Antiproliferative activity on JJN-3 multiple myeloma cells (CellTiter-Glo, 96 hr), Biological Assay C
- Type: cell-based, human
- reported-conditions: Homo sapiens, JJN-3, 96 h, JJN-3 (NIK translocated) cells, averaged values, read-out: JJN-3 Proliferation inhibition (IC50 (nM))
endpoint-label: IC50 (nM)
The figure you give is taken to be in nM; do not add the unit.

Example compounds with recorded IC50:
compound: COc1cc(CO)c(Cl)cc1Nc1nccc(-c2cc(C#N)c3c(c2)C(C)(C)CN3)n1 [Compound 84]
target-entity: JJN-3 (NIK translocated) multiple myeloma cells
endpoint-label: IC50
numeric-readout: 251
--
compound: COc1cc(OCC(=O)N(C)C)c(Cl)cc1Nc1nccc(-c2cc(C#N)c3c(c2)C(C)(C)CN3)n1 [Compound 82]
target-entity: JJN-3 (NIK translocated) multiple myeloma cells
endpoint-label: IC50
numeric-readout: 22
--
compound: Cc1cc(C#CCN)c(C#N)cc1Nc1nccc(-c2cc(C#N)c3c(c2)[C@@](C)(CO)CN3)n1 [Compound 171]
target-entity: JJN-3 (NIK translocated) multiple myeloma cells
endpoint-label: IC50
numeric-readout: 955
--
compound: CN1CCC(Oc2ccc(C#N)cc2Nc2nccc(-c3cc(C#N)c4c(c3)[C@@](C)(CO)CN4)n2)CC1 [Compound 223]
target-entity: JJN-3 (NIK translocated) multiple myeloma cells
endpoint-label: IC50
numeric-readout: 23
--
compound: CCN1CCC(c2ccc(Nc3nccc(-c4cc(C#N)c5c(c4)C(C)(CO)CN5)n3)cc2Cl)CC1 (stereo not drawn) [Compound 41]
target-entity: JJN-3 (NIK translocated) multiple myeloma cells
endpoint-label: IC50
numeric-readout: 13

input: For JJN-3 (NIK translocated) multiple myeloma cells, give the measured IC50 of the entry CC(=O)Nc1cc(Cl)cc(Nc2nccc(-c3cc(C#N)c4c(c3)[C@@](C)(CO)CN4)n2)c1C [Compound 63]
output: 7

input: Retrieve IC50 on JJN-3 (NIK translocated) multiple myeloma cells; query Cc1ccc(C#N)cc1Nc1nccc(-c2cc(C#N)c3c(c2)[C@@](C)(COC(=O)C(C)C)CN3)n1 [Compound 126]
output: 151

input: Tell me IC50 of COc1cc(C(=O)N2CCNC(C#N)C2)c(Cl)cc1Nc1nccc(-c2cc(C#N)c3c(c2)C(C)(C)CN3)n1 (stereo not drawn) [Compound 121] when tested on JJN-3 (NIK translocated) multiple myeloma cells.
output: 12

input: Would you please give the reported IC50 of CC1(CO)CNc2c(C#N)cc(-c3ccnc(Nc4cc(Cl)ccc4OCCO)n3)cc21 (stereo not drawn) [Compound 40] with JJN-3 (NIK translocated) multiple myeloma cells?
output: 155

input: // output IC50; input CC(=O)OC[C@@]1(C)CNc2c(C#N)cc(-c3ccnc(Nc4cc(C#N)ccc4C)n3)cc21 [Compound 125] ; system JJN-3 (NIK translocated) multiple myeloma cells
output: 182

input: Write down measured IC50 (JJN-3 (NIK translocated) multiple myeloma cells) for this compound. Cc1ccc(C(=O)NCCN2CCOCC2)cc1Nc1nccc(-c2cc(C#N)c3c(c2)[C@@](C)(CO)CN3)n1 [Compound 159]
output: 4790

input: Using JJN-3 (NIK translocated) multiple myeloma cells as the test system, report measured IC50 of COCCOc1ccc(C#N)cc1Nc1nccc(-c2cc(C#N)c3c(c2)[C@@](C)(CO)CN3)n1 [Compound 66] .
output: 251

input: Return reported IC50 for target or system JJN-3 (NIK translocated) multiple myeloma cells, item COCCNCc1ccc(C)c(Nc2nccc(-c3cc(C#N)c4c(c3)[C@@](C)(CO)CN4)n2)c1 [Compound 217] .
output: 4270

---

endpoint-label: melting point
Numeric answer plus unit only.

chemical-smiles: COCCNCc1ccc(C)c(Nc2nccc(-c3cc(C#N)c4c(c3)[C@@](C)(CO)CN4)n2)c1
melting point: 151 °C
--
chemical-smiles: COCCCc1ccc(Cl)cc1Nc1nccc(-c2cc(C#N)c3c(c2)[C@@](C)(CO)CN3)n1
melting point: 189 °C
--
chemical-smiles: Cc1c(Nc2nccc(-c3cc(C#N)c4c(c3)[C@@](C)(CO)CN4)n2)cccc1C(=O)N1CCN(C2COC2)CC1
melting point: 268 °C

Now, please, on to the next compound.
input: Tell me measured melting point for "CN1CCC(Oc2ccc(Cl)cc2Nc2nccc(-c3cc(C#N)c4c(c3)C(C)(C)CN4)n2)CC1" please.
output: 192 °C

---

- System: JJN-3 (NIK translocated) multiple myeloma cells
- assay-overview: Antiproliferative activity on JJN-3 multiple myeloma cells (CellTiter-Glo, 96 hr), Biological Assay C
- Type: cell-based, human
- reported-conditions: Homo sapiens, JJN-3, 96 h, JJN-3 (NIK translocated) cells, averaged values, read-out: JJN-3 Proliferation inhibition (IC50 (nM))
Label scheme for IC50: lowest: < 100 nM; middle: ≥ 100 nM and < 400 nM; highest: ≥ 400 nM

Look over these answered cases.
compound: COc1cc(N2CCC(O)CC2)c(Cl)cc1Nc1nccc(-c2cc(C#N)c3c(c2)C(C)(C)CN3)n1
qualitative-label: middle
//
compound: CN1CCCC(Oc2ccc(Cl)cc2Nc2nccc(-c3cc(C#N)c4c(c3)C(C)(C)CN4)n2)C1 (stereo not drawn)
qualitative-label: highest

input: Which IC50 band matches Cc1ccc(Cl)cc1Nc1nccc(-c2cc(C#N)c3c(c2)C(C)(CO)CN3)n1 (stereo not drawn) ?
output: middle

input: Given "CNC(=O)c1cc(Nc2nccc(-c3cc(C#N)c4c(c3)[C@@](C)(CO)CN4)n2)c(C)cc1F" , name the class its IC50 places it in.
output: highest

input: Category of "COc1cc(Nc2nccc(-c3cc(C#N)c4c(c3)C(C)(C)CN4)n2)c(F)c(OC)c1" :
output: highest

input: Kindly state the category for this compound: "Cc1cc(F)c(C(=O)NCC2COC2)cc1Nc1nccc(-c2cc(C#N)c3c(c2)[C@@](C)(CO)CN3)n1"
output: highest

input: Sort into band: [2H]C([2H])(c1cccc(Nc2nccc(-c3cc(C#N)c4c(c3)[C@@](C)(CO)CN4)n2)c1C)N1CC(C)OC(C)C1 (stereo partly drawn)
output: lowest

input: Hey, which category is "COCCN1CCC(c2cc(OC)c(Nc3nccc(-c4cc(C#N)c5c(c4)C(C)(C)CN5)n3)cc2C)CC1" in, do you know?
output: middle

input: Input "COc1ccc(Cl)cc1Nc1ncc(F)c(-c2cc(C#N)c3c(c2)[C@@](C)(CO)CN3)n1" ; output its category
output: highest

input: Consider "CC(=O)NCCCOc1ccc(C#N)cc1Nc1nccc(-c2cc(C#N)c3c(c2)[C@@](C)(CO)CN3)n1" . To which IC50 class does it belong?
output: middle

input: GET /class?item= Cc1c(CN2CC(C)OC(C)C2)cccc1Nc1nccc(-c2cc(C#N)c3c(c2)[C@@](C)(CO)CN3)n1 (stereo partly drawn)
output: lowest

input: Class label required: "CCC(=O)NCCCc1cc(C)c(Nc2nccc(-c3cc(C#N)c4c(c3)[C@@](C)(CO)CN4)n2)cc1C#N"
output: lowest

input: Which band does CC1(CO)CNc2c(C#N)cc(-c3ccnc(Nc4cc(C#N)ccc4CN4CC(F)C4)n3)cc21 (stereo not drawn) fall in?
output: middle

---

- target-entity: recombinant human NF-kappaB-inducing kinase (NIK/MAP3K14) (Homo sapiens)
- Sequence (Q99558 whole entry): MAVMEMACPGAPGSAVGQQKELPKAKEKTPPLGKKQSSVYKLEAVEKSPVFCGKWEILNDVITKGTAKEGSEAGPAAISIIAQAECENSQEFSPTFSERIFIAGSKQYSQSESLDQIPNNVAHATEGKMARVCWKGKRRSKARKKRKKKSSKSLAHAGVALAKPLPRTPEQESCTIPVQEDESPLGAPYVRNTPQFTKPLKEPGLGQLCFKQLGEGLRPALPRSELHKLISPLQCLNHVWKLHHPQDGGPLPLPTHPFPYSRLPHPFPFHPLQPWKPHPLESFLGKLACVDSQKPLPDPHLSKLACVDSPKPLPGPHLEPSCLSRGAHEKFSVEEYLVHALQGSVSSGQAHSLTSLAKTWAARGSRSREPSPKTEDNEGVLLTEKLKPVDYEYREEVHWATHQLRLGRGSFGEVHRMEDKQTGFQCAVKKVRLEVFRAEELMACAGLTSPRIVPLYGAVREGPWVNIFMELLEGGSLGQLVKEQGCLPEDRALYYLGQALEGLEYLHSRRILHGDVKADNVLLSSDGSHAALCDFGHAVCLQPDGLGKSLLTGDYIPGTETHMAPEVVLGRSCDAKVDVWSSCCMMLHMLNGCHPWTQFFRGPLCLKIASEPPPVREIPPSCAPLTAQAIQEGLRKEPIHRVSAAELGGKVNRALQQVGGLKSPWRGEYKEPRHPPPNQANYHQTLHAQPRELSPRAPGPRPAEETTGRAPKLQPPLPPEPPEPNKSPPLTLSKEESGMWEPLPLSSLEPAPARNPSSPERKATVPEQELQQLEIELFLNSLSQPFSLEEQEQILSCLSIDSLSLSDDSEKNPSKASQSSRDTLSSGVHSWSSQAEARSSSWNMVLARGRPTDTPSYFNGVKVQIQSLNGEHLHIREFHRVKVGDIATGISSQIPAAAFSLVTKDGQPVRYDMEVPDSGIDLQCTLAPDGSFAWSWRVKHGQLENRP
- assay-overview: Inhibition of auto-phosphorylation of recombinant human NIK/MAP3K14 activity (AlphaScreen), Biological Assay A
- Assay type: biochemical
- reported-conditions: averaged values over all measurements on all batches
endpoint-label: log10(IC50) (log10 of the value in nM)
All values: log10 IC50 [nM].

A selection of reference data follows.
molecule: CN1CCC(Oc2ccc(C#N)cc2Nc2nccc(-c3cc(C#N)c4c(c3)[C@@](C)(CO)CN4)n2)C(F)C1 (some centres unmarked) [Compound 230]
log10(IC50): 0.80
//
molecule: CNCCOc1ccc(Cl)cc1Nc1nccc(-c2cc(C#N)c3c(c2)C(C)(CO)CN3)n1 (centres unmarked)
log10(IC50): 0.92

input: Give measured log10(IC50) for "CNC(=O)c1ccc(C)c(Nc2nccc(-c3cc(C#N)c4c(c3)[C@@](C)(CO)CN4)n2)c1" (recombinant human NF-kappaB-inducing kinase (NIK/MAP3K14) (Homo sapiens)).
output: 0.62

input: Jot down log10(IC50) (recombinant human NF-kappaB-inducing kinase (NIK/MAP3K14) (Homo sapiens)) of "Cc1cc(F)c(CO)cc1Nc1nccc(-c2cc(C#N)c3c(c2)[C@@](C)(CO)CN3)n1" .
output: 0.36

input: Answer briefly: log10(IC50) recorded on recombinant human NF-kappaB-inducing kinase (NIK/MAP3K14) (Homo sapiens) for "CC(C)Oc1ccc(C#N)cc1Nc1nccc(-c2cc(C#N)c3c(c2)[C@@](C)(CO)CN3)n1"
output: 1.19

input: Under recombinant human NF-kappaB-inducing kinase (NIK/MAP3K14) (Homo sapiens), report log10(IC50) for "COc1cc(N2CCN(C3CC3)CC2)c(Cl)cc1Nc1nccc(-c2cc(C#N)c3c(c2)C(C)(C)CN3)n1"
output: 2.11

input: Give recombinant human NF-kappaB-inducing kinase (NIK/MAP3K14) (Homo sapiens) log10(IC50) for the following molecule: Cc1ccc(C(=O)NC2CCN(C)C2)cc1Nc1nccc(-c2cc(C#N)c3c(c2)[C@@](C)(CO)CN3)n1 (mixture of isomers)
output: 0.54

input: Please look at "COCCN1CCC(c2cc(OC)c(Nc3nccc(-c4cc(C#N)c5c(c4)C(C)(C)CN5)n3)cc2C)CC1" and tell me its recorded log10(IC50) on recombinant human NF-kappaB-inducing kinase (NIK/MAP3K14) (Homo sapiens).
output: 0.99
